assay remarks: NCI Yeast Anticancer Drug Screen. Data for the bub3 strain (AID 167)
condition summary: S. cerevisiae bub3 mutant strain, at 50.0 µM, stronger effect = higher value
Method: Growth inhibition of yeast strains with defined genetic alterations is measured as a screen for potential anti-cancer activity. Selected strains with alterations in DNA damage repair or cell cycle control were exposed to compounds and growth inhibition was measured relative to vehicle treated controls. The strain used in this assay is bub3
Compounds without any hit were thinned out: in the full panel of roughly 79,000, 15% have a hit.
Binary classification by growth inhibition, with 90% as an inclusive lower bound for t; all other cases are f.

A selection of reference data follows.
| molecule | group label |
| --- | --- |
| COc1ccc(/C=C2\Sc3scc(-c4ccc([N+](=O)[O-])cc4)[n+]3C2=O)cc1OC | f |
| COc1ccc(-c2c(C(=O)O)[nH]c3ccccc23)cc1 | t |
| COC(=O)/C(=C/c1ccc(/C=C(/C(=O)O)c2ccc(OC)cc2)o1)c1ccccc1 | f |
| O=C(Nc1ccccc1Cl)c1ccc(Cl)c(Cl)c1 | f |

Please check the record COC(=O)/C(C#N)=C1\NC(=O)CC(c2ccccc2)C1C#N (stereo unspecified) and state if its growth inhibition is at or above 90%. f

Determine whether measured growth inhibition meets or exceeds 90% for ClC1(c2ccccc2)c2ccccc2-c2ccccc21 t

Is growth inhibition at least 90%? Consider CCCc1cc2c(cc1COc1ccccc1C(=O)O)OCO2 f

Check the entry CCCCCCCCCCCCCCCCCCOC(=O)C(N)Cc1ccccc1 (stereo unspecified) : does growth inhibition equal or exceed 90%? f

Is reported growth inhibition greater than or equal to 90% here: Cc1ccc(S(=O)(=O)NCCCOS(=O)(=O)c2ccc(C)cc2)cc1 f

Hi team, for CC12CCC(O)CC1=CCC1C2CCC2(C)c3nc(C#N)c(=N)n(O)c3CC12 (stereo unspecified) , is the recorded growth inhibition at or above 90%? t

Item Clc1ccc(SSc2ccc(Cl)cn2)nc1 with growth inhibition of 90% or above? f

Form field: growth inhibition at least 90%? Entry: CCC(=O)C(CCN(CC)CC)(CCN(CC)CC)c1ccccc1 t

Check this molecule for growth inhibition at or above 90%: CCOC(=O)C1C(c2cccc(OC)c2O)c2cc3c(cc2OC1(C)N1CCCC1)OCO3 (stereo unspecified) f

Hi, just wondering whether Cc1c(O)ccc(C(=O)CCl)c1O shows growth inhibition of 90% or higher. f

Assess whether reported growth inhibition for Cc1cc2nc3ccc(N)cc3oc-2cc1=[N+](C)C sits at 90% or higher. f

Does COc1cc2c(c(C)c1O)[C@H]1COc3ccccc3[C@H]1O2 have a reported growth inhibition of at least 90%? f

Is reported growth inhibition greater than or equal to 90% here: C(=C\c1cnnc2ccccc12)/c1cccnc1 f

Is it the case that Cn1cc(CCC(=O)C2C=CC=CC2=NC(=O)CCCl)c2ccccc21 (stereo unspecified) has growth inhibition reaching or exceeding 90%? f
